Assay: Oral bioavailability in rat at 20 umol/kg
Assay type: ADME, organism-based
Settings: in vivo, at 20 µmol/kg
assayMetric: bioavailability (%)
Give the value in % but do not write % after it.

O=c1cc([C@H]2CCN[C@@H](Cc3ccccc3)C2)o[nH]1 33
O=c1cc([C@H]2CCN[C@@H](CCc3ccccc3)C2)o[nH]1 19

Now examine the next entry.
Prompt line: Which value of bioavailability has been reported for `CC(C)(C)C[C@H]1C[C@@H](c2cc(=O)[nH]o2)CCN1` in the records?
Response line: 39

* * *

Test: Dissociation constant, pKa of the compound
Type: physicochemical
Reported values of pKa for individual entries
Respond numerically, and do not add a unit to the figure.

O=c1cc([C@H]2CCN[C@H](Cc3ccccc3)C2)o[nH]1 4.9

Prompt line: Which value of pKa has been reported for `O=c1cc([C@@H]2CCN[C@H](Cc3ccccc3)C2)o[nH]1` in the records?
Response line: 4.4
